# test: The compound was tested for antagonist activity by selective inhibition of [35S]GTP-gamma-S, binding in Guinea pig caudate stimulated by […] (Opioid receptor delta 1)
quantity: Ki (nM)
Enter your answer as a number in nM; do not include the unit.

>  <compound>
C[C@H]1CN(C/C=C/c2ccccc2)CC[C@@]1(C)c1cccc(O)c1

>  <scale.unit>
nM

>  <Ki>
1.5

$$$$

Let's switch to this compound now.
The recorded Ki for Cc1ccccc1/C=C/CN1CC[C@@](C)(c2cccc(O)c2)[C@@H](C)C1 [RTI-5989-25] is 0.355
